Data credit: the supplement of paper PMC10307832

Tested on: NCI-H322M
Assay: relative viability (nuclei count vs DMSO), 5 days (fraction); higher = more cells survive
Conditions: first compound 0.3162 µM
Below is a list of entries, each paired with its recorded relative viability value.

molecule: O=c1cc(N2CCOCC2)oc2c(-c3cccc4c3sc3ccccc34)cccc12 + C[C@@H](Oc1cc(-c2cnn(C3CCNCC3)c2)cnc1N)c1c(Cl)ccc(F)c1Cl [Crizotinib] (partner 1 µM)
target_or_system: NCI-H322M
relative viability: 0.943

molecule: O=c1cc(N2CCOCC2)oc2c(-c3cccc4c3sc3ccccc34)cccc12 + CS(=O)(=O)CCNCc1ccc(-c2ccc3ncnc(Nc4ccc(OCc5cccc(F)c5)c(Cl)c4)c3c2)o1 [Lapatinib] (partner 2 µM)
target_or_system: NCI-H322M
relative viability: 0.577

molecule: O=c1cc(N2CCOCC2)oc2c(-c3cccc4c3sc3ccccc34)cccc12 + CC(=O)c1c(C)c2cnc(Nc3ccc(N4CCNCC4)cn3)nc2n(C2CCCC2)c1=O [Palbociclib] (partner 0.5 µM)
target_or_system: NCI-H322M
relative viability: 0.462

molecule: O=c1cc(N2CCOCC2)oc2c(-c3cccc4c3sc3ccccc34)cccc12 + O=C(c1cc(Cc2n[nH]c(=O)c3ccccc23)ccc1F)N1CCN(C(=O)C2CC2)CC1 [Olaparib] (partner 8 µM)
target_or_system: NCI-H322M
relative viability: 0.73

molecule: O=c1cc(N2CCOCC2)oc2c(-c3cccc4c3sc3ccccc34)cccc12 + COc1cccc2cc(-c3nc([C@H]4CC[C@H](C(=O)O)CC4)n4ncnc(N)c34)[nH]c12 [OSI-027] (partner 0.5 µM)
target_or_system: NCI-H322M
relative viability: 0.579

molecule: O=c1cc(N2CCOCC2)oc2c(-c3cccc4c3sc3ccccc34)cccc12 + CC1(C)CCC(c2ccc(Cl)cc2)=C(CN2CCN(c3ccc(C(=O)NS(=O)(=O)c4ccc(N[C@H](CCN5CCOCC5)CSc5ccccc5)c(S(=O)(=O)C(F)(F)F)c4)cc3)CC2)C1 [Navitoclax] (partner 0.5 µM)
target_or_system: NCI-H322M
relative viability: 1.19

molecule: CCN(CC)CCCCNc1ncc2cc(-c3cc(OC)cc(OC)c3)c(NC(=O)NC(C)(C)C)nc2n1 + Nc1nc2[nH]cc(CCc3ccc(C(=O)N[C@@H](CCC(=O)O)C(=O)O)cc3)c2c(=O)[nH]1 [Pemetrexed] (partner 0.2 µM)
target_or_system: NCI-H322M
relative viability: 0.642

molecule: CCN(CC)CCCCNc1ncc2cc(-c3cc(OC)cc(OC)c3)c(NC(=O)NC(C)(C)C)nc2n1 + O=C(CCCCCCC(=O)Nc1ccccc1)NO [Vorinostat] (partner 1 µM)
target_or_system: NCI-H322M
relative viability: 0.966

molecule: CCN(CC)CCCCNc1ncc2cc(-c3cc(OC)cc(OC)c3)c(NC(=O)NC(C)(C)C)nc2n1 + N=C(N)NC(=N)NCCc1ccccc1 [Phenformin] (partner 250 µM)
target_or_system: NCI-H322M
relative viability: 0.784

molecule: O=c1cc(N2CCOCC2)oc2c(-c3cccc4c3sc3ccccc34)cccc12 + Nc1ncn([C@H]2C[C@H](O)[C@@H](CO)O2)c(=O)n1 [Decitabine] (partner 2 µM)
target_or_system: NCI-H322M
relative viability: 0.748

molecule: CCN(CC)CCCCNc1ncc2cc(-c3cc(OC)cc(OC)c3)c(NC(=O)NC(C)(C)C)nc2n1 + Cc1nc(NC(=O)N2CCC[C@H]2C(N)=O)sc1-c1ccnc(C(C)(C)C(F)(F)F)c1 [Alpelisib] (partner 2 µM)
target_or_system: NCI-H322M
relative viability: 1.02
